# Tested on: Plasma
# assay comment: Cmax in human plasma treated with 60 mg, po of [14C]edoxaban by LC-MS/MS analysis
# Assay type: ADME, organism-based
# Parameters: dose 60 mg, route oral
# condition summary: in vivo
observed property: Cmax (ng/mL)

Use these answered entries as a reference point.
>>> df
                                   compound  observed_property  number
0  CN(C)C(=O)[C@H]1CC[C@H](NC(=O)C(=O)Nc2ccc(Cl)cn2)[C@H](NC(=O)c2nc3c(s2)CNCC3)C1               Cmax    6.99
1  CN1CCc2nc(C(=O)N[C@@H]3C[C@@H](C(=O)O)CC[C@@H]3NC(=O)C(=O)Nc3ccc(Cl)cn3)sc2C1               Cmax    22.2

A. CNC(=O)[C@H]1CC[C@H](NC(=O)C(=O)Nc2ccc(Cl)cn2)[C@H](NC(=O)c2nc3c(s2)CN(C)CC3)C1 (stereo in doubt; M8)
B. CN1CCc2nc(C(=O)N[C@@H]3C[C@@H](C(=O)N(C)C)CC[C@@H]3NC(=O)C(=O)O)sc2C1
**Query** Identify the entry with the smaller Cmax: A or B . Use the label to indicate which entry you chose.
**Result** A
(A: 0.63 ng/mL, B: 14.9 ng/mL)

====

# Test system: Plasma
# assay comment: AUC (0 to infinity) in human plasma treated with 60 mg, po of [14C]edoxaban by LC-MS/MS analysis
# Type: ADME, organism-based
# Set-up: dose 60 mg, time infinity, route oral
# condition summary: in vivo
observed property: AUC (ng·h/mL)

1. CN(C)C(=O)[C@H]1CC[C@H](NC(=O)C(=O)Nc2ccc(Cl)cn2)[C@H](NC(=O)c2nc3c(s2)CNCC3)C1
2. CN1CCc2nc(C(=O)N[C@@H]3C[C@@H](C(=O)O)CC[C@@H]3NC(=O)C(=O)Nc3ccc(Cl)cn3)sc2C1
3. CN1CCc2nc(C(=O)N[C@@H]3C[C@@H](C(=O)N(C)C)CC[C@@H]3NC(=O)C(=O)O)sc2C1
4. CNC(=O)[C@H]1CC[C@H](NC(=O)C(=O)Nc2ccc(Cl)cn2)[C@H](NC(=O)c2nc3c(s2)CN(C)CC3)C1 (stereo in doubt; M8)
**Query** Output the entries ranked by AUC from maximum down to minimum. A ranking is expressed here by listing the labels in the requested order.
**Result** 2, 3, 1, 4
(2: 147 ng·h/mL, 3: 95.8 ng·h/mL, 1: 56.2 ng·h/mL, 4: 4.41 ng·h/mL)

====

# assay comment: AUC (0 to infinity) in human plasma at 60 mg, po by LC-MS/MS analysis
# Assay type: ADME, organism-based
# Set-up: dose 60 mg, route oral, time infinity
observed property: AUC(0-inf) (ng·h/mL)
// return numeric value only (unit: ng·h/mL, not printed)

**Query** Determine from records and report AUC(0-inf) for "CN1CCc2nc([14C](=O)N[C@@H]3C[C@@H](C(=O)N(C)C)CC[C@@H]3NC(=O)C(=O)Nc3ccc(Cl)cn3)sc2C1"
**Result** 1600
